TEST_SYSTEM: Inadl_5, Q8NI35
Sequence (Q8NI35 673-780): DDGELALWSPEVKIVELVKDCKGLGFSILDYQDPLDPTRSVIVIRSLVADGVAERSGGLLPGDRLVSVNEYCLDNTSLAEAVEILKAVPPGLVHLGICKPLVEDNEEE
TEST: holdup assay
Parameters: key: below the threshold = too weak to quantify, mostly under pKd 3.1 to 4
PARTICULARS: plain residues with an end cap or a label only (N-terminal biotin on a linker: ado-ado)
ENDPOINT: pKd

>  <BINDER>
SNAGNTATKA [NOSTRIN, Q8IVI9]

>  <RECORDED_MEASUREMENT>
below the threshold

$$$$
>  <BINDER>
QKNRKAQEDL [CES3, Q6UWW8]

>  <RECORDED_MEASUREMENT>
below the threshold

$$$$
>  <BINDER>
NLSIEKETKL [ASNSD1, Q9NWL6]

>  <RECORDED_MEASUREMENT>
below the threshold

$$$$
>  <BINDER>
QHKTQLQTLI [BPIFA2, Q96DR5]

>  <RECORDED_MEASUREMENT>
below the threshold

$$$$
>  <BINDER>
SAAKVLTSMC [GHRHR, Q02643]

>  <RECORDED_MEASUREMENT>
below the threshold

$$$$
>  <BINDER>
QPCFNKLFPL [LPXN, O60711]

>  <RECORDED_MEASUREMENT>
below the threshold

$$$$
>  <BINDER>
GNSVLKSTQF [SLC22A12, Q96S37]

>  <RECORDED_MEASUREMENT>
below the threshold

$$$$
>  <BINDER>
LPHPHSTTRV [NLGN2, Q8NFZ4]

>  <RECORDED_MEASUREMENT>
below the threshold

$$$$
>  <BINDER>
SAKVRTVTSV [RASL11B, Q9BPW5]

>  <RECORDED_MEASUREMENT>
below the threshold

$$$$
>  <BINDER>
QSPANIYYKV [EFNB1, P52799]

>  <RECORDED_MEASUREMENT>
below the threshold

$$$$
>  <BINDER>
RRISSLESEV [GRIN2C, Q14957]

>  <RECORDED_MEASUREMENT>
below the threshold

$$$$
>  <BINDER>
PEYLGLDVPV [ERBB2, P04626]

>  <RECORDED_MEASUREMENT>
below the threshold

$$$$
>  <BINDER>
EALLQMESVA [CAVIN3, Q969G5]

>  <RECORDED_MEASUREMENT>
below the threshold

$$$$
>  <BINDER>
DDEDRLVIEI [ZNF831, Q5JPB2]

>  <RECORDED_MEASUREMENT>
below the threshold

$$$$
>  <BINDER>
YLEPVLSSEL [ATP2A2, P16615;P16615-3]

>  <RECORDED_MEASUREMENT>
below the threshold

$$$$
>  <BINDER>
QSLNRMEYIV [JAG1, P78504]

>  <RECORDED_MEASUREMENT>
4.86

$$$$
>  <BINDER>
QMNQTLPVQV [EPHB3, P54753]

>  <RECORDED_MEASUREMENT>
4.1

$$$$
>  <BINDER>
LRSPRTPSEV [OR10G3, Q8NGC4]

>  <RECORDED_MEASUREMENT>
4.73

$$$$
>  <BINDER>
LSEFKAMDSI [CTNNA1, P35221]

>  <RECORDED_MEASUREMENT>
below the threshold

$$$$
>  <BINDER>
TSSMRGMDAV [RSRC2, Q7L4I2]

>  <RECORDED_MEASUREMENT>
below the threshold

$$$$
>  <BINDER>
QGPVETESVV [SLC45A4, Q5BKX6]

>  <RECORDED_MEASUREMENT>
3.54

$$$$
>  <BINDER>
KSGKQTMLVV [TRIM29, Q14134;Q14134-2]

>  <RECORDED_MEASUREMENT>
below the threshold

$$$$
>  <BINDER>
TKGPRGPTRV [SAPCD1, Q5SSQ6]

>  <RECORDED_MEASUREMENT>
3.61

$$$$
>  <BINDER>
KKAPTNEFYA [SDC4, P31431]

>  <RECORDED_MEASUREMENT>
below the threshold

$$$$
>  <BINDER>
HSGYRLNDYV [CLDN14, O95500]

>  <RECORDED_MEASUREMENT>
3.48

$$$$
>  <BINDER>
FNSYSLTGYV [CLDN2, P57739]

>  <RECORDED_MEASUREMENT>
3.6

$$$$
>  <BINDER>
SKENVQETQI [LRRC4B, Q9NT99]

>  <RECORDED_MEASUREMENT>
below the threshold

$$$$
>  <BINDER>
IKAIVDLTGL [TRAF2, Q12933]

>  <RECORDED_MEASUREMENT>
below the threshold

$$$$
>  <BINDER>
LGRSTPQSEV [DGKH, Q86XP1]

>  <RECORDED_MEASUREMENT>
below the threshold

$$$$
>  <BINDER>
CLREWCDAFL [BANF1, O75531]

>  <RECORDED_MEASUREMENT>
below the threshold

$$$$
>  <BINDER>
SGSLKLMTTV [DACT1, Q9NYF0]

>  <RECORDED_MEASUREMENT>
below the threshold

$$$$
>  <BINDER>
LPHGHSTTRV [NLGN4X, Q8N0W4]

>  <RECORDED_MEASUREMENT>
below the threshold

$$$$
